# Test system: Pseudomonas aeruginosa (ATCC 27853)
# Type: cell-based
Where no end group is shown, it is not given here.
RESULT TYPE: MBC P. aeruginosa (µM)
State the answer as a number, implicitly in µM.

GFSSLFKAGAKYLAKQVGKAGAQQL-NH2 [[A^14]BR2GK(1-25)a]	128
GFSSLFKAGAKYLLKQVGKAGAQQL-NH2 [BR2GK(1-25)a]	32
GFSSLFKAGAKYLRKQVGKAGAQQL-NH2 [[R^14]BR2GK(1-25)a]	32

-- ask What value of MBC P. aeruginosa on Pseudomonas aeruginosa (ATCC 27853) does GFSSLFKAGAKYLKKQVGKAGAQQL-NH2 [[K^14]BR2GK(1-25)a] have?
-- reply 64
